Parameter ka (1/Ms) cyBCMA @ 37° C.: see the listing below.
System: cyBCMA
ASSAY INFO: Kinetics and affinity of cyBCMA/human IgG interactions by SPR (Bio-Rad Proteon XPR36)
Assay type: binding, cynomolgus
ASSAY CONTEXT: 37° C.

{"columns": ["MOLECULE", "ka (1/Ms) cyBCMA @ 37° C. (M⁻¹ s⁻¹)"],
 "data": [
  ["L3.PY/L1.AH/H2.QL: anti-BCMA antibody (antibody, V domains shown) VH: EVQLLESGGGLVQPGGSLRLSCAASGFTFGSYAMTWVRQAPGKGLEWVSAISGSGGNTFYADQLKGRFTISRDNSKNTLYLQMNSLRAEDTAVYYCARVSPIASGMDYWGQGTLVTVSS VL: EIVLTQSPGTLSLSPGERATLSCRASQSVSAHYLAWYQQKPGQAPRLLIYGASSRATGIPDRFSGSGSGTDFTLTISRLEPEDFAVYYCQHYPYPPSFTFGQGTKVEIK", "2.62e+06"],
  ["L3.PY/L3.KF/H2.YQ: anti-BCMA antibody (antibody, V domains shown) VH: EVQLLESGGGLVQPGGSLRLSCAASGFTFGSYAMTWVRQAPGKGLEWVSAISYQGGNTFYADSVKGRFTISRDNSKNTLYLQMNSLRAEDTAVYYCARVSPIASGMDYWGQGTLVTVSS VL: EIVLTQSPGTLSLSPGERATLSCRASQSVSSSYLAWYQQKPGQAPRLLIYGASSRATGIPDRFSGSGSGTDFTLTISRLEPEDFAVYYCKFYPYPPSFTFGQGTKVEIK", "1.41e+06"]
]}
